experiment: ATG_GLI_CIS: Attagene CIS-FACTORIAL HepG2 Assay for human Zinc Finger Protein GLI1 (AID 2282945); conditions: HepG2, Attagene cis-factorial reporter mRNA, GLI element; actives raise or lower the signal
The source made the active and inactive calls. Rule for the calls: active = hit-call score of the fitted dose curve at least 0.9, where 1 is the maximum; inactive = score below 0.9.
Hi there, use one of these labels in your reply, thanks! Yes for active, No for inactive

> print(dat)
                                   compound  label.value
1  Cc1c(C)c2c(c(C)c1O)CCC(C)(COc1ccc(CC3SC(=O)NC3=O)cc1)O2 (stereo not drawn)           No
2  CC(=O)[C@@]1(O)CC[C@H]2[C@@H]3CCC4=CC(=O)CC[C@]4(C)[C@H]3CC[C@@]21C           No
3                                      NC=O           No
4                                O=C1CCCCC1           No
5                                 CCCC(=O)O           No
6                      CC(C)c1cccc(C(C)C)c1           No

Per the records of this test, what outcome belongs to N[C@@H](Cc1c[nH]c2ccccc12)C(=O)O ? No

Per the records of this test, what outcome belongs to Cc1cn([C@H]2C=C[C@@H](CO)O2)c(=O)[nH]c1=O ? No

Per the records of this test, what outcome belongs to CC1(C)C(=O)NC(=O)N1CO ? No

Per the records of this test, what outcome belongs to COC(=O)CCC(=O)OC ? No

Per the records of this test, what outcome belongs to OCC(CO)n1cnc(-c2ccc(F)cc2)c1-c1ccnc(Oc2ccccc2)n1 ? No

---

test: CCTE_Shafer_MEA_dev_spike_duration_mean: CCTE's Neural Network Formation Assay for Mean Spike Duration, Shafer Lab (AID 2284051);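 note: mean network spike duration pooled as area under curve over DIV 5 to 12 recordings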
The source made the active and inactive calls. The calls were made as follows: active = hit-call score of the fitted dose curve at least 0.9, where 1 is the maximum; inactive = score below 0.9.
Hi there, use one of these labels in your reply, thanks! active, inactive

Known results for molecules:
> print(dat)
                                   molecule  label.value
1  CC(=O)CC(c1ccccc1)c1c(O)c2ccccc2oc1=O (stereo not given)     inactive
2  COC(=O)[C@H]1[C@H]2C[C@@H]3c4[nH]c5cc(OC)ccc5c4CCN3C[C@H]2C[C@@H](OC(=O)c2cc(OC)c(OC)c(OC)c2)[C@@H]1OC       active
3                                  OCC(O)CO     inactive
4         O=C1NC(=O)C(c2ccccc2)(c2ccccc2)N1     inactive

Read the next record carefully.
Per the records of this test, what outcome belongs to CN(C)CCCN1c2ccccc2Sc2ccc(Cl)cc21 ? active

---

read-out: Intercellular Adhesion Molecule 1 (ICAM1), ICAM1 (gene 3383); experiment: BSK_3C_ICAM1: BioMAP Diversity Plus: 3C Assay for Intercellular Adhesion Molecule 1 (ICAM1) Biomarker Activity (AID 2283003); details: primary human endothelial cells (HUVEC); actives raise or lower the signal
Active and inactive are the calls of the source. How the source made its calls: active means hit-call score of the fitted dose curve at least 0.9, where 1 is the maximum; inactive means score below 0.9.
experimental_readout: AC50

> print(dat)
                                   compound  experimental.readout        data.value
1                      CC(C)c1cccc(C(C)C)c1                  AC50          inactive
2  CS(=O)(=O)c1ccc([C@@H](C[C@H]2CCC(=O)C2)C(=O)Nc2cnccn2)cc1Cl                  AC50          inactive
3                   NC(=Nc1ccccc1)Nc1ccccc1                  AC50          inactive
4  Cc1c(C)c2c(c(C)c1O)CCC(C)(COc1ccc(CC3SC(=O)NC3=O)cc1)O2 (stereo unspecified)                  AC50  31.1 µM (active)
5  OCC(CO)n1cnc(-c2ccc(F)cc2)c1-c1ccnc(Oc2ccccc2)n1                  AC50          inactive

As a next step, examine the compound that follows.
Item O=NO has what recorded AC50? inactive
